Test: gradient 5% acetonitrile 3 min, to 50% in 2 min, to 85% in 15 min, held 3 min, 100 µL/min
Settings: column: Zorbax Extend-C18 2.1 x 50 mm; eluents: water / acetonitrile, 0.1% formic acid
Assignment: determine reported RP-LC retention time for the given molecules.
Dear colleague, please send the value followed by its unit.

Memo: COCC(=O)N1CCN(c2nc(CN3CCC(C)CC3)cs2)CC1 , reported RP-LC retention time: 570 s

RP-LC retention time reported for this molecule CCCCCNC(=O)C1CCCN(c2ncc(-c3ccccc3)cn2)C1 (stereo unspecified) : 1090 s

RP-LC retention time for CC(C)(C(N)=O)c1ccccc1 is 712 s

# molecule O=C(c1cc(Sc2cccc(Cl)c2)nc2ccccc12)N1CCN(c2ccccn2)CC1 ; its RP-LC retention time = 789 s

Field RP-LC retention time (entry CCOc1cc(C(=O)Nc2ccc(-c3cn4cccnc4n3)cc2)cc(OCC)c1OCC ) reads 759 s

Please fill in: RP-LC retention time reported for CCn1cc(-c2ccc(C)cc2)cc1C(=O)NC1CC1 = 991 s

Value of measured RP-LC retention time for the entry COc1ccc(C(=O)CC(SCCO)c2ccc(Cl)cc2)cc1 (stereo unspecified) : 866 s

For CCc1c2c(nc3sc(C(=O)NCC4CCCO4)c(N)c13)CC(C)(C)CC2=O (stereo unspecified) the molecule record lists RP-LC retention time as 836 s

// recorded RP-LC retention time for CCOc1ccc(CCNC(=O)C2CCCN(c3nnc(C)c4c(C)n(-c5ccccc5)nc34)C2)cc1 (stereo unspecified) : 759 s

Data point: COc1ccc(C2SCCN2S(=O)(=O)c2ccc(C)c([N+](=O)[O-])c2)cc1OC (stereo unspecified) ; RP-LC retention time = 900 s

COCC1CN(S(=O)(=O)c2cc(F)ccc2OC)CC12CCNCC2 (stereo unspecified) has a reported RP-LC retention time of 611 s

Short answer for Cn1c(CNC(=O)C2(C)CCCCC(=O)N2)nc2ccccc21 (stereo unspecified) : RP-LC retention time was 573 s

Data point: Cc1ccc(-c2nc3ccccn3c2CCC(=O)Nc2ccc(Br)cc2C)cc1 ; RP-LC retention time = 770 s

# molecule COc1ccc(OC)c(NC(=O)c2csc(-c3ccc(C)n3C)n2)c1 ; its RP-LC retention time = 1230 s

The molecule listed as COc1ccc(OC)c(NC(=O)CSC2CCc3ccccc3NC2=O)c1 (stereo unspecified) has a reported RP-LC retention time of 797 s

Entry CCCN1CCCCc2cc(C(=O)NCC(F)F)sc21 , RP-LC retention time reported as 932 s

# RP-LC retention time (molecule: Cc1nn(C)c(=O)c2cc(S(=O)(=O)NCCC3=CCCCC3)cn12 ) is 966 s

RP-LC retention time for CCCOc1nc2ccccc2nc1N1CCCC(C(=O)Nc2ccc(F)c(Cl)c2)C1 (stereo unspecified) is 1130 s

Notebook: CC1CCCN(S(=O)(=O)c2ccc(-c3nnc(C4CC4)o3)o2)C1 (stereo unspecified) , RP-LC retention time read as 940 s

Sample CN1C(=O)c2cc(C(=O)NCc3ccccc3F)nn2CC1(C)C(=O)NC1CCCC1 (stereo unspecified) ; RP-LC retention time observed: 698 s

response.value for CCN(CC)S(=O)(=O)c1ccc2c(c1)CC(C(=O)NCCN1CCCC1)N2C(C)=O (stereo unspecified) (field: RP-LC retention time) = 613 s

* * *

Would you kindly list RP-LC retention time for each of these compounds?
Experiment: gradient 5% acetonitrile 3 min, to 50% in 2 min, to 85% in 15 min, held 3 min, 100 µL/min
Conditions: column: Zorbax Extend-C18 2.1 x 50 mm; eluents: water / acetonitrile, 0.1% formic acid
Report the value in s with no unit label.

Briefly, RP-LC retention time measured for CS(=O)(=O)c1ccc(-c2cccc(NS(=O)(=O)c3ccc4c(c3)CCCC4)c2)nn1 : 855

So, Cc1nnc(-c2ccc3ccn(CC(=O)NCCCc4ccccc4)c3c2)o1 ? Its RP-LC retention time was 807

Given item N#CCCN1CCN(c2ccc(NC(=O)c3ccc(Br)cc3)c(C(=O)O)c2)CC1 , the value recorded as its RP-LC retention time is 678

Given item O=C(c1cccs1)N1CCN(c2ccc(=O)n(-c3cccc(Cl)c3)n2)CC1 , the value recorded as its RP-LC retention time is 814

Given item Cc1cccc(-c2noc(-c3nn(-c4cccc(F)c4)ccc3=O)n2)c1 , the value recorded as its RP-LC retention time is 928

* * *

Test: gradient 5% acetonitrile 3 min, to 50% in 2 min, to 85% in 15 min, held 3 min, 100 µL/min
Conditions: column: Zorbax Extend-C18 2.1 x 50 mm; eluents: water / acetonitrile, 0.1% formic acid
Class criterion met: RP-LC retention time at least 1000 s. Class criterion not met: RP-LC retention time below 1000 s.

// inclusive: RP-LC retention time at least 1000 s? input: Cc1cn2c(S(=O)(=O)N3CCC4(CC3)OCCO4)c(C(C)C)nc2s1
criterion not met

Decide: is the reported value of RP-LC retention time for O=C(O)c1cc(-c2c[nH]c3ccccc23)nc2ccccc12 equal to or greater than 1000 s?
criterion not met

Exam item: decide whether the reported RP-LC retention time for O=C(Cn1cnc2c(-c3ccc(Cl)cc3)csc2c1=O)N1CCCCC1 is at least 1000 s.
criterion not met

Entry Cc1ccc(C)c(-c2nc(-c3cccc(-c4ccn[nH]4)c3)no2)c1 : is its RP-LC retention time no less than 1000 s?
criterion met

Is RP-LC retention time at least 1000 s? Consider CC(C)CC(=O)N[C@H](Cc1ccccc1)C(=O)NCc1cscn1
criterion not met

# check: RP-LC retention time of Cc1nc(-n2c(C)ccc2C)sc1C(=O)NC(C)C is greater than or equal to 1000 s
criterion not met

Test whether the compound CCC1(O)CCC12CCN(C(=O)c1ccoc1)CC2 (stereo unspecified) records RP-LC retention time of 1000 s or higher.
criterion not met

Is the recorded value of RP-LC retention time equal to or greater than 1000 s for this compound? O=C(NCc1cccc(C(F)(F)F)c1)c1ccnc(N2CCCCC2)n1
criterion met

Exam item: decide whether the reported RP-LC retention time for CCn1nccc1C(=O)N1CCCN(C2=NS(=O)(=O)C(c3ccc(F)cc3)=C2C)CC1 is at least 1000 s.
criterion not met

Confirm if RP-LC retention time reported for the compound Cc1ccc(-c2nnc(-c3cccc(S(=O)(=O)N4CCSCC4)c3)o2)cc1 is 1000 s or above.
criterion met

Given the entry O=C(Cn1cnc2c(nc3n2CCCCC3)c1=O)N1CCN(c2ccc(Cl)cc2)CC1 , answer whether its RP-LC retention time meets or surpasses 1000 s.
criterion not met

Given CN1CCC(NC(=O)C2CCc3sc(C(=O)N4CCOCC4)cc3C2)CC1 (stereo unspecified) , state whether its RP-LC retention time is at least 1000 s.
criterion not met

I'd appreciate it if you could say whether COCCCn1c(=O)c2ccccc2n(Cc2nc(-c3ccc(Cl)cc3)no2)c1=O has RP-LC retention time at least equal to 1000 s.
criterion met

Determine whether measured RP-LC retention time meets or exceeds 1000 s for Cc1cc(C(=O)NCCCC(=O)Nc2cccc3cccnc23)c(C)o1
criterion not met

Check this compound for RP-LC retention time at or above 1000 s: CC(=O)N=c1sc(S(N)(=O)=O)nn1C
criterion not met

Item COC(=O)CSCC(=O)Nc1nccs1 with RP-LC retention time of 1000 s or above?
criterion not met

Determine whether measured RP-LC retention time meets or exceeds 1000 s for O=S(=O)(c1ccc(F)cc1F)N1CCC(c2noc(-c3ccc(F)cc3)n2)CC1
criterion met

Quick check, RP-LC retention time >= 1000 s? CCCCCn1c(=O)c2ccccc2n(Cc2nc(-c3ccc(F)cc3)no2)c1=O
criterion met

* * *

Assay: gradient 5% acetonitrile 3 min, to 50% in 2 min, to 85% in 15 min, held 3 min, 100 µL/min
Conditions: column: Zorbax Extend-C18 2.1 x 50 mm; eluents: water / acetonitrile, 0.1% formic acid
Tag: yes (1) if measured RP-LC retention time is not below 1000 s, no (0) if it is.

Would you say CN1CCC2(CC1)CN(C(=O)Nc1ccccc1)Cc1ccccc1O2 shows RP-LC retention time at minimum 1000 s?
no (0)

Hi team, for Cc1cc(=O)n(CC(=O)Nc2cccc(C#N)c2)c(N2CCc3ccccc3C2)n1 , is the recorded RP-LC retention time at or above 1000 s?
no (0)

Decide: is the reported value of RP-LC retention time for CC(C)NC(=O)CN1C(=O)C2CCCCN2c2ccc(S(=O)(=O)N3CCCCC3)cc21 (stereo not given) equal to or greater than 1000 s?
no (0)

Test whether the compound Cc1ccc(-n2ncc3c(=O)n(Cc4nc(-c5ccc(Br)cc5)no4)cnc32)cc1 records RP-LC retention time of 1000 s or higher.
yes (1)

API: above_or_equal(metric=RP-LC retention time, cutoff=1000 s) for item Clc1cc2c(nn1)Nc1ccccc1S2
no (0)

Reported RP-LC retention time reaches at least 1000 s for COc1ccc(NC(=O)Cc2c(C)nn(-c3nc(-c4ccc(F)cc4)cs3)c2C)c(OC)c1 ?
yes (1)

Answer whether RP-LC retention time of COc1ccc(-c2noc(NC3CCCC3)n2)cc1 is greater than or equal to 1000 s.
no (0)

Could you tell me if the measured RP-LC retention time of CCn1ccc(C(=O)Nc2cnc(N3CCCCC3)nc2)n1 reaches 1000 s or more?
no (0)

Kindly determine if RP-LC retention time recorded for CCc1nc(-c2cc(S(=O)(=O)N3CCC(C(=O)NC4CCCCCCC4)CC3)c(C)s2)no1 is above or exactly 1000 s.
yes (1)

Tell me whether RP-LC retention time is at least 1000 s here: O=C(OCc1cccnc1)c1cn(-c2cccc(F)c2)c(=O)c2ccccc12
no (0)

# credit: the METLIN SMRT retention time set (Domingo-Almenara et al. 2019)
